Values from ChEMBL document CHEMBL1201862

test system: 786-0; assay: NCI tumour cell line growth inhibition, 48 h
Active and inactive are the calls of the source. Rule as the data show it: active = GI50 up to about 1.1 µM and inactive = higher.
measurement label: GI50

COc1ccc(NC(=S)Nc2c(C)n(C)n(-c3ccccc3)c2=O)cc1 :: > 100 µM (inactive)
CSC1NC=Nc2c1sc(=S)n2-c1ccccc1 (stereo unspecified) :: > 100 µM (inactive)
Clc1cc(OC23CC4CC(CC(C4)C2)C3)nc(Cl)n1 :: > 100 µM (inactive)
CC(C)/C(Cl)=N\OC(=O)Nc1ccc(F)cc1 :: 5.18 µM (inactive)
Cc1ccc2sc3ccc(N)cc3c(=O)c2c1 :: 54.5 µM (inactive)
O=c1[nH]c(Nc2nc3ccccc3[nH]2)nc(O)c1Cc1ccccc1 :: 61.5 µM (inactive)
CC1=NN(c2ccccc2)C(=O)/C1=C/c1ccc(O)cc1 :: > 100 µM (inactive)
S=C(Nc1c2c(nc3ccccc13)CCCC2)Nc1c2c(nc3ccccc13)CCCC2 :: > 100 µM (inactive)
CC(=O)O[C@H]1CC[C@H]2[C@@H]3CCC4=C(C(=O)C=CC4(C)OC(C)=O)[C@H]3CC[C@]12C (stereo partly specified) :: 86.7 µM (inactive)
OC12CC/C(=N/OCc3ccccc3)CC1c1ccccc12 (stereo unspecified) :: > 100 µM (inactive)

Fill in GI50 for each of the 5 molecules listed.
1. CC(C)Nc1n[nH]c(=O)n1C(C)C
2. CC(C)N1C=[N+](C(C)C)CC1
3. Nc1cccc(S(=O)(=O)Nc2nnc(S(N)(=O)=O)s2)c1
4. CSc1nc(NC2OC(COC(C)=O)C(OC(C)=O)C(OC(C)=O)C2OC(C)=O)c2c(n1)OCC2=O (stereo unspecified)
5. OCC[N+]12CCCN1CCC2

> 100 µM (inactive)
> 100 µM (inactive)
> 100 µM (inactive)
> 100 µM (inactive)
> 100 µM (inactive)

----------
test system: MDA-N; experiment: NCI tumour cell line growth inhibition, 48 h
Activity calls are given as the source filed them. Rule as the data show it: active = GI50 up to about 1.1 µM and inactive = higher.
Lab note: assign the record to one of 1 = active, -1 = inactive

CCOC(=O)c1cc2ncccc2c2ccccc12 :: -1
CCOC(=O)c1nnsc1NN=C(C)C :: -1
COC(=O)C1=C(O)C(C(=O)OC)[C@]2(O)[C@H](C(=O)OC)[C@H]1C[C@@H](c1ccc(C(F)(F)F)cc1)[C@H]2C(=O)OC (stereo not given in full) :: -1

# fetch the recorded call for CN1c2c(O)nc(N)nc2NCC1CCNc1ccc(C(=O)NC(CCC(=O)O)C(=O)O)cc1 (stereo not given) here
-1

How did this test come out for Cc1cn(C2CC(n3cc(Cn4ccc(=O)[nH]c4=O)nn3)C(CO)O2)c(=O)[nH]c1=O (stereo not given) ?
-1

Name the outcome recorded for COc1cc([C@@H]2c3cc4c(cc3C[C@H]3COC(=O)[C@@H]32)OCO4)cc(OC)c1OC [DESOXYPODOPHYLLOTOXIN] in the assay.
1

Kindly provide the recorded test outcome for the following compound: C/C(=C/CC[C@]1(CO)CC[C@]2(C)[C@H](CC[C@@H]3[C@@]4(C)CC[C@H](OC5OC(CO)C(O)C(O)C5OC5OC(CO)C(O)C(O)C5O)C(C)(C)[C@@H]4CC[C@]32C)[C@H]1O)CO (stereo not given in full)
-1

Query: recorded result category for O=C1OC(c2ccc([N+](=O)[O-])cc2)=N/C1=C\c1ccc(Cl)cc1 in this test
-1

Outcome? N#C/C(=C\n1ccc(=O)[nH]c1=S)C(N)=O
-1

Hey, what did the test say about O=c1[nH]nc(Cc2ccccc2)n1CCO ?
-1
